# measured on: hT1R2/hT1R3 sweet receptor expressed in HEK293 cell line (Homo sapiens, UniProt Q7RTX0+Q8TE23)
# Construct: expressed in transfected cells; host or cells: HEK293 derivative stably expressing Gα15 and hT1R2/hT1R3, clone S-9
# Sequence (Q8TE23 20-839): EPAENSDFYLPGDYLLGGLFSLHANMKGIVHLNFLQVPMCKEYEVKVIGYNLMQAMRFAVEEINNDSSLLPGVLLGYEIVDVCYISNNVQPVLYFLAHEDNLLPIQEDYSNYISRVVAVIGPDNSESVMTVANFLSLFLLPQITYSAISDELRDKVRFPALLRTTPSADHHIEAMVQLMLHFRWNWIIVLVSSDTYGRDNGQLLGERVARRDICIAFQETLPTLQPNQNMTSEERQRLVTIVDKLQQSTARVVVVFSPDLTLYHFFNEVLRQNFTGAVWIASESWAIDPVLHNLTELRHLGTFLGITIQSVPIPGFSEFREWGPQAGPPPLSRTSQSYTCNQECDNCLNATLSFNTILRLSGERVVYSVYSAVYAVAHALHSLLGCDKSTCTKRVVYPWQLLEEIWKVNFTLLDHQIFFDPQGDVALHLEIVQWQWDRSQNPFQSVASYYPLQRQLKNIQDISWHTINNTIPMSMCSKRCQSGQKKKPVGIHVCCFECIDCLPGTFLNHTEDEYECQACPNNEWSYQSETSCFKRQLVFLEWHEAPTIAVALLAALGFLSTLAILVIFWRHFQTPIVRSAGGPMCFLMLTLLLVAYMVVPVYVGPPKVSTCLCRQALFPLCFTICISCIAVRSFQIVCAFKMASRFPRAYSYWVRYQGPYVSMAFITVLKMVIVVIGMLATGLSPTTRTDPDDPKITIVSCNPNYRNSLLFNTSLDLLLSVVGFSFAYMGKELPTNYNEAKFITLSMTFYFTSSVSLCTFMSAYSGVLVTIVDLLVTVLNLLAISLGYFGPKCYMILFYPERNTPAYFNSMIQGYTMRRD
# Sequence (Q7RTX0 21-852): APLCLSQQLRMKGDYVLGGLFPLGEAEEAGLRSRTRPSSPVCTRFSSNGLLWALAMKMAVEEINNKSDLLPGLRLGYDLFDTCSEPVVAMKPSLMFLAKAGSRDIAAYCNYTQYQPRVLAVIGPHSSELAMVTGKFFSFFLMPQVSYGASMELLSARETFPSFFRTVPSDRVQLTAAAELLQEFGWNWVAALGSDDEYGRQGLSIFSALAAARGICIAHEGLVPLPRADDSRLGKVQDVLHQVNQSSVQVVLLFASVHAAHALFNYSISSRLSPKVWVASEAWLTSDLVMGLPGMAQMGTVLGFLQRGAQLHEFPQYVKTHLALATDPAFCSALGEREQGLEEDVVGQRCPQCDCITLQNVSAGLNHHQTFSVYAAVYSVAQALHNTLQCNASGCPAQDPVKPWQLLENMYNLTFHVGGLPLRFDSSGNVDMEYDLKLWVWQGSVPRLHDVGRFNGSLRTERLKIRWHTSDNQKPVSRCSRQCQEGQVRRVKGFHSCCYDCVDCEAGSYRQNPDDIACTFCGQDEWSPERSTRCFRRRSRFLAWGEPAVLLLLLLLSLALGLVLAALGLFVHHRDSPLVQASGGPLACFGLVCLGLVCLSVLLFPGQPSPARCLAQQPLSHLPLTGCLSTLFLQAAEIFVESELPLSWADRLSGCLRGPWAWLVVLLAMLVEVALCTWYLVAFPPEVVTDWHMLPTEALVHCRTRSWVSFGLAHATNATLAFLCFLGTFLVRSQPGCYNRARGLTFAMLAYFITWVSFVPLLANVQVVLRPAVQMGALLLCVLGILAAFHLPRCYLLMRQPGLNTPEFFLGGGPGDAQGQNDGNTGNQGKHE
# experiment: In vitro hT1R2/hT1R3-HEK293 taste receptor activation assay (FLIPR)
# Format: cell-based
# condition label: read-out: EC50 for activation of a hT1R2/hT1R3 sweet receptor expressed in HEK293 cell line
pEC50: −log10 of the molar value.
Decision: pEC50 compared against 6; not below it gives criterion met, below it gives criterion not met.

## Task Hi, just wondering whether CC(C)CNC(=O)C(C)(C)c1ccc(-c2cccc(C(=O)N(C)C)c2)cc1 shows pEC50 of 6 or higher.
## Result criterion not met

---
## Task Evaluate CCC(COC)NC(=O)C(C)(C)c1ccc(-c2ccccc2)c(F)c1 (centres unmarked) : pEC50 at minimum 6?
## Result criterion not met

## Task Does CC(C)CNC(=O)C(C)(C)c1ccc(-n2cccc2)cc1 have a reported pEC50 of at least 6?
## Result criterion met

## Task Can CC(C)CNC(=O)C(C)c1ccc(-c2ccccc2)c(F)c1 (centres unmarked) be said to have pEC50 at or above 6?
## Result criterion not met

---

Parameter pEC50: see the listing below.
# measured on: hT1R2/hT1R3 sweet receptor expressed in HEK293 cell line (Homo sapiens, UniProt Q7RTX0+Q8TE23)
# Construct: expressed in transfected cells; host or cells: HEK293 derivative stably expressing Gα15 and hT1R2/hT1R3, clone S-9
# experiment: In vitro hT1R2/hT1R3-HEK293 taste receptor activation assay (FLIPR)
# Type: cell-based
# condition label: Table A; read-out: SWEET EC50
Recall that pEC50 is obtained by taking minus log10 of the concentration measured in molar.

## Task Can you look up the measured pEC50 of CC[C@H](CO)NC(=O)C(C)(C)c1ccc(-c2ccccc2)cc1 [Compound A60] for me?
## Result 5.96

## Task What value of pEC50 has been reported for the following compound? COC(=O)c1cncc(-c2ccc(C(C)(C)C(=O)NCC(C)C)cc2)c1 [Compound A73]
## Result 6.27

## Task // lookup pEC50 for CC[C@@H](C)NC(=O)C(C)(C)c1ccc(-c2cncc(C#N)n2)cc1 [Compound A50]
## Result 6.43

## Task pEC50 for CC(C)CNC(=O)C(C)(C)c1ccc(-c2cocc2C#N)cc1 [Compound A48] ?
## Result 6.49

## Task Param item = CC(C)CNC(=O)C(C)c1ccc(-c2cccc(F)c2)cc1 (stereo not drawn) [Compound A6] ; retrieve measured pEC50.
## Result 5.74

## Task Would you kindly share the measured pEC50 for COc1cccc(-c2ccc(C(C)(C)C(=O)NCC(C)C)cc2)c1OC [Compound A18] ?
## Result 5.18

Others:
## Task For the compound shown here, CC(C)(C(=O)NCC1CC1)c1ccc(-c2cncc(C#N)n2)cc1 [Compound A45] , give the reported pEC50.
## Result 6.57

## Task So what's the measured pEC50 for this one? CSc1ccccc1-c1ccc(C(C)(C)C(=O)NCC(C)C)cc1 [Compound A14]
## Result 5.05

## Task Quick check: pEC50 of CC[C@@H](C)NC(=O)C(C)(C)c1ccc(-c2cccc(COC)c2)cc1 [Compound A53] ?
## Result 6.26

## Task Which pEC50 value is on record for COCOCc1c(C=O)cccc1-c1ccc(C(C)(C)C(=O)NCC(C)C)cc1 [Compound A23] ?
## Result 5.96

## Task Need pEC50 of CC(C)CNC(=O)C(C)(C)c1ccc(-c2cnco2)cc1 [Compound A35] , thanks.
## Result 4.94

## Task Consider the compound CC(C)CNC(=O)C(C)(C)c1ccc(-c2coc(C(=O)O)c2)cc1 [Compound A66] and give its measured pEC50.
## Result 5.86

## Task # pEC50 lookup, item CC(C)CNC(=O)C(C)(C)c1ccc(-c2cnc3ccccn23)cc1 [Compound A25]
## Result 5.91

## Task What does the data say about its pEC50? Entry: CC(C)(C(=O)NC1CCCCC1)c1ccc(-c2cncnc2)cc1 [Compound A89]
## Result 6.39

// provenance: patent US7842324B2
